Data origin, for the record: patent US8901307B2

system: human His-PIM2 [23-299] (Homo sapiens)
Construct: purified human His-PIM2 [23-299] enzyme; His (N); host or cells: E. coli
Sequence (Q9P1W9 23-299): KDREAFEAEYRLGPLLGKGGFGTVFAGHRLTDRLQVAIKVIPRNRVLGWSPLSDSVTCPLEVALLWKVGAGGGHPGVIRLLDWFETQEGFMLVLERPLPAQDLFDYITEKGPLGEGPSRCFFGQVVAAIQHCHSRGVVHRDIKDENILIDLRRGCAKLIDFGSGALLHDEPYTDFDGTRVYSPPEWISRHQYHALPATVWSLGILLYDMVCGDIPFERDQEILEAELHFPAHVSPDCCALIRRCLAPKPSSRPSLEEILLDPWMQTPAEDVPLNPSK
protocol text: PIM2 in-vitro mobility shift assay (Caliper LC3000, FL-Ahx-Bad phosphorylation)
Type: biochemical
settings: 1.5 h; percent inhibition at 0.3 uM compound; read-out: PIM2 % I at 0.3 uM
Structures can show the parent of a compound that is named as a salt.
So I've got a bunch of molecules here, and I need their inhibition at 0.3 µM values.
One number for each entry, in %.

Please review the entries below; each comes with its answer.
CN1CCN(Cc2cccc(/C=C3\SC(=O)NC3=O)c2)CC1 [Example 84E] = 6.1
NCCC(=O)N1CCN(c2ncccc2/C=C2\SC(=O)NC2=O)CC1 [Example 90, trifluoroacetate] = 86.3
N[C@@H]1CCCN(c2ccc(C(=O)O)cc2/C=C2\SC(=O)NC2=O)C1 [Example 122AG, hydrochloride] = 86.7

Give inhibition at 0.3 µM for each of the items listed below.
1. C[C@@H]1CN(c2ccc(C(F)(F)F)cc2/C=C2\SC(=O)NC2=O)C[C@H](C)N1 [Example 34, hydrochloride]
2. CN(C)CCN(C)c1ccccc1/C=C1\SC(=O)NC1=O [Example 47]
3. CN1CCC(N2CCN(c3c(Cl)cc(C(F)(F)F)cc3/C=C3\SC(=O)NC3=O)CC2)CC1 [Example 19]
4. N[C@H]1CCN(c2cc(Cl)ccc2/C=C2\SC(=O)NC2=O)C1 [Example 85, hydrochloride]
5. NCCCCC(=O)N1CCCN(c2ccccc2/C=C2\SC(=O)NC2=O)CC1 [Example 103, hydrochloride]
6. CN(C)C1CCN(c2ccc(C(N)=O)cc2/C=C2\SC(=O)NC2=O)C1 (stereo not shown) [Example 57, hydrochloride]
7. CN(C)[C@H]1CCN(c2ccc(F)cc2C=C2SC(=O)NC2=O)C1 [Example 84K]
8. COc1cc(/C=C2\SC(=O)NC2=O)c(N2CC[C@H](NCCCN)C2)cc1OC [Example 121, hydrochloride]

Ans:
1. 39.3
2. 26.3
3. 38.3
4. 82.4
5. 88.7
6. 42.6
7. 90.8
8. 87.4

###

For each of the compounds below, state its inhibition at 0.3 µM.
system: human His-PIM1 [2-313] (Homo sapiens, UniProt P11309)
Construct: purified human His-PIM1 [2-313] enzyme; His (N); purchased University of Dundee, Scotland; host or cells: baculovirus system
Sequence (P11309 2-313): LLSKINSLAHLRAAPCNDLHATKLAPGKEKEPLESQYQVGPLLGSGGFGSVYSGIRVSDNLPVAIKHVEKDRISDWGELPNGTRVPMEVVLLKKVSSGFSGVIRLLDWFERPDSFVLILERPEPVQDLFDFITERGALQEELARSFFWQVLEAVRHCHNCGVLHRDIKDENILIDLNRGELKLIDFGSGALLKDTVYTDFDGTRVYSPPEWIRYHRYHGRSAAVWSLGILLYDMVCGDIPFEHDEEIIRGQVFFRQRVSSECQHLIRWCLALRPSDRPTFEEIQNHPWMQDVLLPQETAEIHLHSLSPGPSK
protocol text: PIM1 in-vitro mobility shift assay (Caliper LC3000, FL-Ahx-Bad phosphorylation)
Assay type: biochemical
settings: 1.5 h; percent inhibition at 0.3 uM compound; read-out: PIM1 % I at 0.3 uM
Give bare numbers, in %.

COc1cc(/C=C2\SC(=O)NC2=O)c(N2CCC(NC(=O)CCN)C2)cc1OC (centres unmarked) [Example 128] = 81.2

Items follow; give inhibition at 0.3 µM for each.
1. CCN(CC)CCOc1ccc(OC)cc1/C=C1\SC(=O)NC1=O [Example 63]
2. CC(C)(C)OC(=O)N1CCN(c2ccc(C(F)(F)F)cc2/C=C2\SC(=O)NC2=O)CC1 [Example 55]

Ans:
[79.2, 11]

Batch lookup, inhibition at 0.3 µM per entry.
1. COc1ccc(N2CCC(N(C)C)CC2)c(/C=C2\SC(=O)NC2=O)c1 [Example 44]
2. CN1CCN(c2ccccc2/C=C2\SC(=O)NC2=O)CC1 [Example 84A]

Ans:
1. 83.8
2. 92.9
